- assay_target: T1, IL-6R-Fc 항원 (human, UniProt P08887 20-365, limits assumed)
- T1 construct: domain: IL-6R full domain; Made in-house as IL-6R-Fc; also called IL-6R full; IL-6R full domain인 단백질; not shown: Fc part (vector pYK 604)
- T1 sequence (looked up): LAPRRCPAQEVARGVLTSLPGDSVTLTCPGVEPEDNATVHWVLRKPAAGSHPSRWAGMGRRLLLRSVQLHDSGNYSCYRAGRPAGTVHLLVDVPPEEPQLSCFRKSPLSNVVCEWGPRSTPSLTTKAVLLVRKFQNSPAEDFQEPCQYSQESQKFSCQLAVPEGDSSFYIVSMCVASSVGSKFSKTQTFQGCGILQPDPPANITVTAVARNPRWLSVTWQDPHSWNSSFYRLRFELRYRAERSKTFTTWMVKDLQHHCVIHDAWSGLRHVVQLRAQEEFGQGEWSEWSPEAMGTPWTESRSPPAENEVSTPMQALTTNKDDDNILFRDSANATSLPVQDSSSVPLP
- method_notes: ELISA; IL-6R coated 100 ng/well; IgG at 0.02441 nM; anti-Fab-HRP
reported_endpoint: OD 490 nm (OD490)
Field: numeric (OD490). Do not append units.

Observe how each entry below is paired with its result.
항 IL-6R 단클론 항체 F2 (antibody, V domains shown) VH: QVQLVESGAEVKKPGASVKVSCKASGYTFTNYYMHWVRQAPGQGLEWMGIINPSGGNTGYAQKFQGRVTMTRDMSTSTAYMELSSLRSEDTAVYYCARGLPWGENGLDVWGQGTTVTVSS VL: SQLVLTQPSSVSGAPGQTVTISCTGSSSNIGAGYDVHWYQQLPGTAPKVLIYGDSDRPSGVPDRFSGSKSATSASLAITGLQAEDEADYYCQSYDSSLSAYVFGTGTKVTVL :: 0.535
항 IL-6R 단클론 항체 D2 (antibody, V domains shown) VH: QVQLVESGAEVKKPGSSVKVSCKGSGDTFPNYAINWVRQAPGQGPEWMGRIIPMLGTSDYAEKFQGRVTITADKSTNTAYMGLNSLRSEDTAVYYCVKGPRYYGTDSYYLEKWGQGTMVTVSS VL: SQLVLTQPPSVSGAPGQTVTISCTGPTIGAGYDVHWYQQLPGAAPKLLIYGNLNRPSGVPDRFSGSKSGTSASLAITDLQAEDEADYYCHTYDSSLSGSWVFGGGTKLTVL :: 0.449
항 IL-6R 단클론 항체 A7 (antibody, V domains shown) VH: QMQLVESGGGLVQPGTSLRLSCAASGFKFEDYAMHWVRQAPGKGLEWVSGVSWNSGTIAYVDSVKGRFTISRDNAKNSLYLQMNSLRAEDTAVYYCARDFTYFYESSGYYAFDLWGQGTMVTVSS VL: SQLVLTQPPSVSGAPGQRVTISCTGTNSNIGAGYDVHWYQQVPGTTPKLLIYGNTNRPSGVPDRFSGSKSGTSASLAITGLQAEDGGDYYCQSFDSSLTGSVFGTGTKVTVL :: 0.514

// switching to the query binder
Query block: Quick one: OD 490 nm for 항 IL-6R 단클론 항체 B10 (antibody, V domains shown) VH: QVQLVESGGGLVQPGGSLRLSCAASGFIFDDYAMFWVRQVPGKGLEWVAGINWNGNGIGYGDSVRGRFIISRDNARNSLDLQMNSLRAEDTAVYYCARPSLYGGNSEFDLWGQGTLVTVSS VL: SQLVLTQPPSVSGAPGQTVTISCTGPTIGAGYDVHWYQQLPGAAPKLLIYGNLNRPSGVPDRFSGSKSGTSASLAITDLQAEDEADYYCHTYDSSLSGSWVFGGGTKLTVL ?
Result block: 0.468
